All figures here come from ChEMBL document CHEMBL2016468.

experimentSummary: Inhibition of Yersinia pestis Dam using oligonucleotide 1 as substrate after 2000 to 3000 sec by micro plate reader based real-time break-light assay
Listed compounds paired with reported IC50

Guide cases for IC50, answers given:
cpdSmiles: Nc1ncnc2c1ncn2[C@@H]1O[C@H](CN(CCc2csc3ccccc23)CC[C@H](N)C(=O)O)[C@@H](O)[C@H]1O
IC50: 28.9 µM
//
cpdSmiles: Nc1ncnc2c1ncn2[C@@H]1O[C@H](CN(CCc2c[nH]c3ccccc23)CC[C@H](N)C(=O)O)[C@@H](O)[C@H]1O
IC50: 12.3 µM

Input: Which IC50 value is on record for Nc1ncnc2c1ncn2[C@@H]1O[C@H](CN(CC[C@H](N)C(=O)O)Cc2ccccn2)[C@@H](O)[C@H]1O ?
Output: > 250 µM

Input: For the compound shown here, Nc1ncnc2c1ncn2[C@@H]1O[C@H](CN(CCCc2ccccn2)CC[C@H](N)C(=O)O)[C@@H](O)[C@H]1O , give the reported IC50.
Output: > 250 µM

---

experimentSummary: Inhibition of Yersinia pestis Dam using oligonucleotide 1 as substrate after 2000 to 3000 sec by micro plate reader based real-time break-light assay
Measured IC50 accompanies every entry in the list below.
Respond numerically; units are µM and should not be typed.

Input: Given Nc1ncnc2c1ncn2[C@@H]1O[C@H](CNCC[C@H](N)C(=O)O)[C@@H](O)[C@H]1O , state its recorded IC50.
Output: 84

Input: I am curious: what IC50 value has been reported for Nc1ncnc2c1ncn2[C@@H]1O[C@H](CN(CCc2cccc3[nH]ccc23)CC[C@H](N)C(=O)O)[C@@H](O)[C@H]1O ?
Output: 31.3

---

# IC50 annotations
experimentSummary: Inhibition of Yersinia pestis Dam using oligonucleotide 1 as substrate after 2000 to 3000 sec by micro plate reader based real-time break-light assay

Recorded IC50, per entry:
cpdSmiles: Nc1ncnc2c1ncn2[C@@H]1O[C@H](CN(CCCc2c[nH]c3ccccc23)CC[C@H](N)C(=O)O)[C@@H](O)[C@H]1O
endpointResult: 13.1 µM

cpdSmiles: Nc1ncnc2c1ncn2[C@@H]1O[C@H](CSCC[C@H](N)C(=O)O)[C@@H](O)[C@H]1O
endpointResult: 11.9 µM

Input: Given the molecule Nc1ncnc2c1ncn2[C@@H]1O[C@H](CN(CCc2coc3ccccc23)CC[C@H](N)C(=O)O)[C@@H](O)[C@H]1O , what is its reported IC50?
Output: 39.2 µM
